The measurements presented in this section are drawn from patent EP4631938A1.

# experimentalSystem: human recombinant 5-HT2C receptor (Homo sapiens)
# Construct: expressed in transfected cells; host or cells: Jump-In HEK cells (membrane preparation)
# Sequence (P28335 33-458): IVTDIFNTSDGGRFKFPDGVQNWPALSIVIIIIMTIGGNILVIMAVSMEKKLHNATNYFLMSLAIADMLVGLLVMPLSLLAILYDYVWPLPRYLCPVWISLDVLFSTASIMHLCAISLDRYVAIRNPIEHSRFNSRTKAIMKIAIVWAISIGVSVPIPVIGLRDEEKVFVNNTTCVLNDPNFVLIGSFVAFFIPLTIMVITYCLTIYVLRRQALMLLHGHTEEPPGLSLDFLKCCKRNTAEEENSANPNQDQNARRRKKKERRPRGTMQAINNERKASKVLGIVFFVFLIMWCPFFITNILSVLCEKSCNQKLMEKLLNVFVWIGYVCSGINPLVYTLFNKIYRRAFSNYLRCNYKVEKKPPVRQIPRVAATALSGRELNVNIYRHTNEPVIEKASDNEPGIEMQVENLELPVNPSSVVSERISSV
# test: Test Example 2: 5-HT2C receptor binding inhibition test ([3H]-Mesulergine; non-specific ligand Serotonin HCl)
# runConditions: human serotonin 5-HT2C receptor binding activity
# Description: The Kd value is calculated when the lot of the cell membrane is changed. […] The radioactivity of [^3H]-Mesulergine bound to the 5-HT2C receptor is measured using Microbeta2 (PerkinElmer) at a measurement time of 1 min/well. The Saturation curve is drawn from the measured value, and the Kd value is calculated from the slope of the Scatchard Plot. […]
pKi: −log10 of the molar value.
endpoint: pKi

As a guide, the following entries are already answered.
Cc1cc(Cl)ccc1Nc1ncc(OCCO)c(-c2c(Br)cnn2C)n1; 8.62
Cc1nc(C2COC2)nc(C)c1-c1cc(Nc2ncc(C(F)(F)F)cc2Cl)ncc1OCCO; 8.22

(a) COCc1nc(C)c(-c2cc(Nc3ncc(-c4ncc(F)cc4F)cc3Cl)ncc2OCCO)c(C)n1
(b) Cn1ncc(Br)c1-c1nc(Nc2ccc(Cl)cc2Cl)ncc1OCCO
Would you let me know which has the greater pKi value, a or b ? Refer to your chosen entry by its label in the reply.
b
(b: 8.73, a: 8.50)
